The measured values listed here are drawn from patent US8772286B2.

In this section we review reported solubility at 24 h values for a set of compounds.
test: Solubility determination of MK2 inhibitors (kinetic aqueous solubility, UPLC); type: physicochemical; conditions: aqueous buffer (system solution from pION inc.), 22 °C, pH 7.4, aqueous buffer, kinetic from dmso stock, pH 7.4, room temperature, about 1% DMSO, 24 h shaking; read-out: solubility

Look over these answered cases.
In [3]: df
Out[3]:
                                   compound    readoutvalue
0  O=C(Nc1nccc(-c2cc3c([nH]2)C2(CCCNC2)CNC3=O)n1)c1cccc(OC(F)(F)F)c1 (centres unmarked)  20 to 50 µg/mL
1  O=C1NCC2(CCNCC2)c2[nH]c(-c3ccnc(-c4cccc(C(F)(F)F)c4)n3)cc21      ≥ 50 µg/mL
2  O=C1NCC2(CCNCC2)c2[nH]c(-c3nc(-c4cnc5ccccc5c4)ncc3F)cc21      ≥ 50 µg/mL
3  O=C1NCC2(CCNCC2)c2[nH]c(-c3ccnc(-c4ccc5c(c4)OCCCO5)n3)cc21      ≥ 50 µg/mL
4  O=C1NCC2(CCNCC2)c2[nH]c(-c3ccnc(-c4ccc(C5CCCCC5)cc4)n3)cc21  20 to 50 µg/mL
5  O=C1NCC2(CCNCC2)c2[nH]c(-c3ccnc(-c4nc5ccccc5s4)n3)cc21      ≥ 50 µg/mL

Measured solubility at 24 h, CNC(=O)c1ccc(-c2ncc(F)c(-c3cc4c([nH]3)C3(CCNCC3)CNC4=O)n2)cc1 : 20 to 50 µg/mL

----------
target: MK2 enzyme (Homo sapiens); construct: MK2 enzyme (active enzyme (peptide 46-end (Millipore))); purchased Millipore; experiment: MK2 enzyme activity, IMAP fluorescence polarization assay; format: biochemical; conditions: Table 1, comparison compound of Formula (XV) without spiro ring; MK2 IMAP assay; read-out: pEC50, Formula (XV) (converted)
quantityName: EC50 (nM)
Response body: numeric value in nM, unit text excluded.

These recorded examples may help you get a feel for the data.
In [3]: df
Out[3]:
                            structuresmiles  displayunit  readoutvalue
0  O=C1NCCc2[nH]c(-c3ccnc(-c4ccccc4F)n3)cc21           nM          1000
1  O=C1NCCc2[nH]c(-c3ccnc(-c4cc5ccccc5o4)n3)cc21           nM          50.1
2  CC(=O)c1ccc(-c2nccc(-c3cc4c([nH]3)CCNC4=O)n2)cc1           nM           126

The compound identified as O=C1NCCc2[nH]c(-c3ccnc(-c4ccc5c(c4)OCO5)n3)cc21 registered its EC50 at 126

----------
Assay: Solubility determination of MK2 inhibitors (kinetic aqueous solubility, UPLC)
Format: physicochemical
Details: aqueous buffer (system solution from pION inc.), 22 °C, pH 7.4, aqueous buffer, kinetic from dmso stock, pH 7.4, room temperature, about 1% DMSO, 24 h shaking; read-out: solubility
Protocol: The solubility can be determined using the Automated Kinetic Aqueous Solubility (AKASol) method, which is an HPLC-UV based method. […] The solubility is determined by measuring the amount of compound in a saturated aqueous solution, quantified by an external calibration curve of the compound dissolved in DMSO. […] The samples were prepared from 10 mM DMSO stock solutions. […] To the filtrate (150 uL) 1-propanol (50 uL) is added to suppress precipitation and this solution is then analysed by UPLC. […]
quantityName: solubility at 24 h

Here's what some known entries look like.
>>> df
                                   molecule        quantityname    readoutvalue
0  O=C1NCC2(CCNCC2)c2[nH]c(-c3ccnc(-c4cc(Cl)cc(Cl)c4)n3)cc21  solubility at 24 h      ≥ 50 µg/mL
1  O=C1NCC2(CCNCC2)c2[nH]c(-c3ccnc(-c4ccc(Cl)c(Cl)c4)n3)cc21  solubility at 24 h      ≥ 50 µg/mL
2  O=C1NCC2(CCNCC2)c2[nH]c(-c3ccnc(-c4ccc(-c5ccccc5)cc4)n3)cc21  solubility at 24 h  20 to 50 µg/mL
3  O=C1NCC2(CCNCC2)c2[nH]c(-c3ccnc(-c4cnc(NC5CCCC5)nc4)n3)cc21  solubility at 24 h      ≥ 50 µg/mL
4  Nc1ncc(-c2nccc(-c3cc4c([nH]3)C3(CCNCC3)CNC4=O)n2)cn1  solubility at 24 h  20 to 50 µg/mL
5  O=C1NCC2(CCNCC2)c2[nH]c(-c3ccnc(-c4ccc(Cl)cc4F)n3)cc21  solubility at 24 h      ≥ 50 µg/mL
6  Cc1ccc(-c2nccc(-c3cc4c([nH]3)C3(CCNC3)CNC4=O)n2)cc1 (centres unmarked)  solubility at 24 h      ≥ 50 µg/mL

The molecule listed as O=C1NCC2(CCNCC2)c2[nH]c(-c3ccnc(-c4cccc(F)c4)n3)cc21 has a reported solubility at 24 h of 20 to 50 µg/mL

----------
molecular target: MK2 enzyme (Homo sapiens, UniProt P49137); construct: MK2 enzyme (active enzyme (peptide 46-end (Millipore))); purchased Millipore; experiment: MK2 enzyme activity, IMAP fluorescence polarization assay; assay type: biochemical; settings: MK2 IMAP assay, 1 μM ATP, 30 min pre-incubation, 2 h room temperature; read-out: pEC50 value (converted)
Sequence (P49137 46-400 limits assumed): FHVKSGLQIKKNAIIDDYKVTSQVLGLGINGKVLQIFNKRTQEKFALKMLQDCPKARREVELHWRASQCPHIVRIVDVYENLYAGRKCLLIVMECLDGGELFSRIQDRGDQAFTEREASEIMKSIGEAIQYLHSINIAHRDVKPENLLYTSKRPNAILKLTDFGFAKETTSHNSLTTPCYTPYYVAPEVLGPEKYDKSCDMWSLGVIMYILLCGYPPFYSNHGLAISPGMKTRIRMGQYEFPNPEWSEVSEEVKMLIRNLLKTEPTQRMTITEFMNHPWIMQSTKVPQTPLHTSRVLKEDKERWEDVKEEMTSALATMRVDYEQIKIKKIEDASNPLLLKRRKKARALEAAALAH
quantityName: EC50

# count of solved cases: 3
>>> print(df.to_string())
                                   compound    readoutvalue
0  O=C(Nc1nccc(-c2cc3c([nH]2)C2(CCCNC2)CNC3=O)n1)c1ccc(C(F)(F)F)cc1 (centres unmarked)  31.6 to 316 nM
1  O=C1NCC2(CCNCC2)c2[nH]c(-c3ccnc(-c4ccc5c(c4)OCO5)c3)cc21       ≤ 3.16 nM
2  O=C(Nc1nccc(-c2cc3c([nH]2)C2(CCCNC2)CNC3=O)n1)c1cccc(OC(F)(F)F)c1 (centres unmarked)  31.6 to 316 nM

MK2 enzyme (Homo sapiens, UniProt P49137) EC50 of O=C1NCC2(CCNCC2)c2[nH]c(-c3ccnc(-c4cc5ccccc5o4)c3)cc21 is 3.16 to 31.6 nM

Noted EC50 for O=C1NCC2(CCNCC2)c2[nH]c(-c3nc(-c4ccc(Cl)cc4F)ncc3F)cc21 , tested on MK2 enzyme (Homo sapiens, UniProt P49137): 3.16 to 31.6 nM

Given the compound NC(=O)c1cccc(-c2nccc(-c3cc4c([nH]3)C3(CCNCC3)CNC4=O)n2)c1 and test system MK2 enzyme (Homo sapiens, UniProt P49137), the measured EC50 is 3.16 to 31.6 nM

Result for CCC(=O)Nc1ccc(-c2nccc(-c3cc4c([nH]3)C3(CCNCC3)CNC4=O)n2)cn1 , tested on MK2 enzyme (Homo sapiens, UniProt P49137), EC50: 3.16 to 31.6 nM

I looked up O=C1NCC2(CCNCC2)c2[nH]c(-c3ccnc(-c4ccc(Oc5ccccc5)cc4)n3)cc21 and its EC50 for MK2 enzyme (Homo sapiens, UniProt P49137) was 3.16 to 31.6 nM

----------
# solubility at 24 h per entry
Assay: Solubility determination of MK2 inhibitors (kinetic aqueous solubility, UPLC)
Format: physicochemical
Settings: aqueous buffer (system solution from pION inc.), 22 °C, pH 7.4, aqueous buffer, kinetic from dmso stock, Table 2, comparison compound of Formula (XVI), spiro ring without amine; pH 7.4; read-out: Solubility pH 7.4 (mg/L), Formula (XVI)
Protocol: The solubility can be determined using the Automated Kinetic Aqueous Solubility (AKASol) method, which is an HPLC-UV based method. […] The solubility is determined by measuring the amount of compound in a saturated aqueous solution, quantified by an external calibration curve of the compound dissolved in DMSO. […] The samples were prepared from 10 mM DMSO stock solutions. […] To the filtrate (150 uL) 1-propanol (50 uL) is added to suppress precipitation and this solution is then analysed by UPLC. […]
State just the number; it will be interpreted in mg/L.

>>> df
                            structuresmiles  readoutvalue
0  O=C1NCC2(CCOCC2)c2[nH]c(-c3ccnc(-c4cnc5ccccc5c4)n3)cc21             3

Lab note: next compound to report on.
solubility at 24 h measured on O=C1NCC2(CCOCC2)c2[nH]c(-c3ccnc(-c4ccc5c(c4)OCO5)n3)cc21 = 2

----------
Target: MK2 enzyme (Homo sapiens, UniProt P49137)
Construct: MK2 enzyme (active enzyme (peptide 46-end (Millipore))); purchased Millipore
Test: MK2 enzyme activity, IMAP fluorescence polarization assay
Type: biochemical
Conditions: MK2 IMAP assay, 1 μM ATP, 30 min pre-incubation, 2 h room temperature; read-out: pEC50 value (converted)
Procedure: In another assay the MK2 kinase activity can be determined by using an IMAP assay (Immobilized Metal Assay for Phosphochemicals—based coupled assay). IMAP is a homogeneous fluorescence polarization (FP) assay based on affinity capture of phosphorylated peptide substrates. […] MK2 enzyme activity is measured using the IMAP (immobilized metal ion affinity-based fluorescence polarization) assay as outlined below. […] After 60 min incubation at room temperature in the dark the FP signal is read. […]
quantityName: EC50

Check out these entries, answers already filled in.
>>> df
                                   compound     readoutvalue
0  O=C1NCC2(CCNCC2)c2[nH]c(-c3ccnc(-c4cccc(-c5ccccc5)c4)n3)cc21   31.6 to 316 nM
1  O=C1NCC2(CNCCO2)c2[nH]c(-c3ccnc(-c4cc5ccccc5o4)n3)cc21 (stereo not shown)   31.6 to 316 nM
2  O=C1NCC2(CCNCC2)c2[nH]c(-c3ccnc(-c4ccc5ccccc5c4)n3)cc21  3.16 to 31.6 nM

The compound Cc1ccc(C(=O)Nc2cc(-c3cc4c([nH]3)C3(CCNCC3)CNC4=O)ccn2)cc1C , when measured on MK2 enzyme (Homo sapiens, UniProt P49137), yielded EC50 of ≤ 3.16 nM

Record O=C1NCC2(CCNCC2)c2[nH]c(-c3ccnc(-c4ccccc4F)n3)cc21 has MK2 enzyme (Homo sapiens, UniProt P49137) EC50 equal to 3.16 to 31.6 nM

The reported MK2 enzyme (Homo sapiens, UniProt P49137) EC50 of O=C1NCC2(CCNCC2)c2[nH]c(-c3ccnc(-c4ccc5oc6ccccc6c5c4)n3)cc21 is 31.6 to 316 nM

Measured EC50 (MK2 enzyme (Homo sapiens, UniProt P49137)), entry O=C1NCC2(CCNC2)c2[nH]c(-c3ccnc(-c4cccc(F)c4)n3)cc21 (stereo not shown) : 3.16 to 31.6 nM

EC50 on MK2 enzyme (Homo sapiens, UniProt P49137) for CC(C)COc1ccc(-c2nccc(-c3cc4c([nH]3)C3(CCNCC3)CNC4=O)n2)cc1 is 3.16 to 31.6 nM

The recorded EC50 with MK2 enzyme (Homo sapiens, UniProt P49137) for O=C1NCC2(CCNCC2)c2[nH]c(-c3ccnc(-c4cnc(NC5CCCC5)nc4)n3)cc21 was ≤ 3.16 nM

Summary line: O=C1NCC2(CCNCC2)c2[nH]c(-c3ccnc(-c4cnc5ccccc5c4)n3)cc21 , MK2 enzyme (Homo sapiens, UniProt P49137), reported EC50 = 3.16 to 31.6 nM
